# System: 926638-142-R-J1-PDC complex spheroid viability;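 note: spheroids exposed to drugs for one week before readout; percent viability relative to DMSO vehicle control wells set as 100%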
# assay-method-text: Anticancer human tumor 926638-142-R-J1-PDC patient-derived endometrial carcinoma cell line growth inhibition [POLQ]
# experimental-context: second compound 0.0316 µM; first compound 0.316 µM; stronger effect = lower value
assay-endpoint: viability, T/C (%)

>>> measured_value("C=CCn1c(=O)c2cnc(Nc3ccc(N4CCN(C)CC4)cc3)nc2n1-c1cccc(C(C)(C)O)n1 + Nc1ccc(C#CCN(C(=O)Cc2ncc(C(F)(F)F)cc2C(F)(F)F)c2ccc(F)cc2)nn1")
57.5
>>> measured_value("C=CCn1c(=O)c2cnc(Nc3ccc(N4CCN(C)CC4)cc3)nc2n1-c1cccc(C(C)(C)O)n1 + COC1C(OC(N)=O)C(O)C(Oc2ccc3c(O)c(NC(=O)c4ccc(O)c(CC=C(C)C)c4)c(=O)oc3c2C)OC1(C)C")
54.1
>>> measured_value("Nc1ccn(C2OC(CO)C(O)C2(F)F)c(=O)n1 (stereo not given) + COC1C(OC(N)=O)C(O)C(Oc2ccc3c(O)c(NC(=O)c4ccc(O)c(CC=C(C)C)c4)c(=O)oc3c2C)OC1(C)C")
49.4
>>> measured_value("O=C(c1cc(Cc2n[nH]c(=O)c3ccccc23)ccc1F)N1CCN(C(=O)C2CC2)CC1 + Nc1ccc(C#CCN(C(=O)Cc2ncc(C(F)(F)F)cc2C(F)(F)F)c2ccc(F)cc2)nn1")
84.5
>>> measured_value("CCc1cc2c(N3CCc4c(cc(Cn5ccnc5)cc4-c4cn(C)nc4C(F)(F)F)C3=O)cc(C)nc2c(OC)n1 + Cc1cccc(N(C)C(=O)C2C(O)CCN2c2nc(C)cc(C(F)(F)F)c2C#N)c1")
45.9
>>> measured_value("COc1cc2cc(C(=O)CCC(=O)O)sc2cc1OC + Nc1ccc(C#CCN(C(=O)Cc2ncc(C(F)(F)F)cc2C(F)(F)F)c2ccc(F)cc2)nn1")
104
>>> measured_value("CC1COCCN1c1cc(-c2ccnn2C)c2ccnc(-c3ccn[nH]3)c2n1 (stereo not given) + COC1C(OC(N)=O)C(O)C(Oc2ccc3c(O)c(NC(=O)c4ccc(O)c(CC=C(C)C)c4)c(=O)oc3c2C)OC1(C)C")
58.2
>>> measured_value("COc1cccc2c1C(=O)c1c(O)c3c(c(O)c1C2=O)CC(O)(C(=O)CO)CC3OC1CC(N)C(O)C(C)O1 (stereo not given) + Nc1ccc(C#CCN(C(=O)Cc2ncc(C(F)(F)F)cc2C(F)(F)F)c2ccc(F)cc2)nn1")
25.7
>>> measured_value("COc1cccc(OCCCN)c1-c1cc(Nc2cnc(C#N)cn2)n[nH]1 + COC1C(OC(N)=O)C(O)C(Oc2ccc3c(O)c(NC(=O)c4ccc(O)c(CC=C(C)C)c4)c(=O)oc3c2C)OC1(C)C")
36
>>> measured_value("CCc1c2c(nc3ccc(O)cc13)-c1cc3c(c(=O)n1C2)COC(=O)[C@]3(O)CC + Nc1ccc(C#CCN(C(=O)Cc2ncc(C(F)(F)F)cc2C(F)(F)F)c2ccc(F)cc2)nn1")
15.2
